tested on: HOP-62; test: Antiproliferative activity against human HOP62 cell line; format: functional
property.label: GI50 (nM)

O=C1c2ccccc2-c2c1c1ccccc1c(=O)n2CCCNCCCCNCCCn1c2c(c3ccccc3c1=O)C(=O)c1ccccc1-2
525
NCCCn1c2c(c3ccccc3c1=O)C(=O)c1ccccc1-2
200
O=C1c2ccccc2-c2c1c1ccccc1c(=O)n2CCCCNCCCn1c2c(c3ccccc3c1=O)C(=O)c1ccccc1-2
28
O=C1c2ccccc2-c2c1c1ccccc1c(=O)n2CCNCCCNCCn1c2c(c3ccccc3c1=O)C(=O)c1ccccc1-2
339

----------
system: OVCAR-3; test: Antiproliferative activity against human OVCAR-3 cell line; type: functional
property.label: log10(GI50) (log10 of the value in nM)

O=C1c2ccccc2-c2c1c1ccccc1c(=O)n2CCCNCCn1c2c(c3ccccc3c1=O)C(=O)c1ccccc1-2
3.95
COc1cc2c3c(n(CCCNCCCNCCCn4c5c(c6cc(OC)c(OC)cc6c4=O)C(=O)c4ccccc4-5)c(=O)c2cc1OC)-c1ccccc1C3=O
3.98
COc1cc2c3c(n(CCNCCCNCCn4c5c(c6cc(OC)c(OC)cc6c4=O)C(=O)c4ccccc4-5)c(=O)c2cc1OC)-c1ccccc1C3=O
2.43
O=C1c2ccccc2-c2c1c1ccccc1c(=O)n2CCCNCCNCCCn1c2c(c3ccccc3c1=O)C(=O)c1ccccc1-2
3.01
O=C1c2ccccc2-c2c1c1ccccc1c(=O)n2CCNCCNCCNCCNCCn1c2c(c3ccccc3c1=O)C(=O)c1ccccc1-2
1.51
CN(CCCn1c2c(c3ccccc3c1=O)C(=O)c1ccccc1-2)CCCn1c2c(c3ccccc3c1=O)C(=O)c1ccccc1-2
3.08
O=C1c2ccccc2-c2c1c1ccccc1c(=O)n2CCCNCCCCNCCCn1c2c(c3ccccc3c1=O)C(=O)c1ccccc1-2
2.13
CC(C)(C)OC(=O)N(CCCN(CCn1c2c(c3ccccc3c1=O)C(=O)c1ccccc1-2)C(=O)OC(C)(C)C)CCn1c2c(c3ccccc3c1=O)C(=O)c1ccccc1-2
4.33
COc1cc2c3c(n(CCCNCCCNCCCN)c(=O)c2cc1OC)-c1cc2c(cc1C3=O)OCO2
2.94
O=C1c2ccccc2-c2c1c1ccccc1c(=O)n2CCCNCCCNCCCn1c2c(c3ccccc3c1=O)C(=O)c1ccccc1-2
1.87
CC(C)(C)OC(=O)N(CCCn1c2c(c3ccccc3c1=O)C(=O)c1ccccc1-2)CCN(CCCn1c2c(c3ccccc3c1=O)C(=O)c1ccccc1-2)C(=O)OC(C)(C)C
4.12
NCCCn1c2c(c3ccccc3c1=O)C(=O)c1ccccc1-2
3.14
